Procedure details: Half life in Beagle dog at 0.5 mg/kg, iv and 1 mg/kg, po measured up to 7 hrs by LC-MS/MS analysis
Format: ADME, organism-based, Canis lupus familiaris
Test conditions: in vivo
Overview of recorded half-life for various molecules
Parameter measured: half-life (h)

Entry smiles	Parameter measured	Unit text	Recorded measurement
CNC(=O)c1cc(C(=O)N[C@H]2CC[C@H](O)CC2)c([C@@H](C)c2cccc(Cl)c2)o1	half-life	h	3.1
CNC(=O)c1cc(C(=O)N[C@H]2[C@@H]3C[C@@H](O)C[C@@H]32)c([C@@H](C)c2ccccc2)o1	half-life	h	2.5
CNC(=O)c1cc(C(=O)N[C@H]2CC[C@H](O)CC2)n([C@@H](C)c2ccccc2)n1	half-life	h	9
CNC(=O)c1cc(C(=O)N[C@H]2CC[C@H](OC)CC2)n([C@@H](C)c2ccccc2)n1	half-life	h	4.1
CNC(=O)c1cc(C(=O)N[C@H]2CC[C@H](O)CC2)c([C@@H](C)c2ccccc2)o1	half-life	h	5.2
CNC(=O)c1cc(C(=O)N[C@H]2[C@@H]3COC[C@@H]32)c([C@@H](C)c2ccccc2)o1	half-life	h	5

====

Procedure details: Oral bioavailability in male Wistar Han rat measured up to 7 hrs by LC-MS/MS analysis
Format: ADME, organism-based
Test conditions: in vivo
Overview of recorded bioavailability for various compounds

Entry smiles	bioavailability [%]
CNC(=O)c1cc(C(=O)N[C@H]2[C@@H]3COC[C@@H]32)cc2c1O[C@H](CF)[C@H]2c1ccccc1	48
CC(=O)Nc1c(F)cc(C(=O)N[C@H]2CC[C@H](O)CC2)cc1O[C@@H](C)c1ccccc1	31

====

Procedure details: Solubility of the compound in FaSSIF at pH 6.5 incubated for 16 hrs by HPLC gradient analysis
Format: physicochemical
Test conditions: FaSSIF, pH 6.5
Overview of recorded solubility at 16 h for various compounds
Parameter measured: solubility at 16 h (µg/mL)

Compound	Parameter measured	Qualifier operator	Recorded measurement
CC[C@@H](c1ccccc1)n1nc(C(=O)NC)cc1C(=O)N[C@H]1[C@@H]2C[C@@H](O)C[C@@H]21	solubility at 16 h	=	56
CNC(=O)c1cc(C(=O)NC2CC2)cn(Cc2cccc3[nH]ccc23)c1=O	solubility at 16 h	=	17
CNC(=O)c1cc(C(=O)N[C@H]2CC[C@H](O)CC2)c([C@@H](C)c2cccc(OC)c2)o1	solubility at 16 h	=	868
CNC(=O)c1cc(C(=O)NC2CC2)cn(Cc2ccccc2)c1=O [GSK620]	solubility at 16 h	=	13
CNC(=O)c1cc(C(=O)N[C@H]2[C@@H]3C[C@H](O)C[C@@H]32)n([C@@H](C)c2cccc(Cl)c2)n1	solubility at 16 h	=	327
CNC(=O)c1cc(C(=O)N[C@H]2CC[C@H](OC)CC2)n([C@@H](CO)c2ccccc2)n1	solubility at 16 h	>	1000
CNC(=O)c1cc(C(=O)N[C@H]2CC[C@H](O)CC2)c([C@@H](C)c2ccc(C)cc2)o1	solubility at 16 h	>	1000

====

Procedure details: Volume of distribution at steady state in male Wistar Han rat at 0.5 mg/kg, iv and 3 mg/kg, po measured up to 7 hrs by LC-MS/MS analysis
Type: ADME, organism-based
Test conditions: in vivo, read-out: Vdss
Parameter measured: Vd (L/kg)

Entry smiles	Recorded measurement
CNC(=O)c1cc(C(=O)N[C@H]2CC[C@H](O)CC2)n([C@@H](C)c2ccccc2)n1	1.1
